- Target Or System: MERTK (UniProt Q12866)
- Sequence (Q12866 whole entry, looked up): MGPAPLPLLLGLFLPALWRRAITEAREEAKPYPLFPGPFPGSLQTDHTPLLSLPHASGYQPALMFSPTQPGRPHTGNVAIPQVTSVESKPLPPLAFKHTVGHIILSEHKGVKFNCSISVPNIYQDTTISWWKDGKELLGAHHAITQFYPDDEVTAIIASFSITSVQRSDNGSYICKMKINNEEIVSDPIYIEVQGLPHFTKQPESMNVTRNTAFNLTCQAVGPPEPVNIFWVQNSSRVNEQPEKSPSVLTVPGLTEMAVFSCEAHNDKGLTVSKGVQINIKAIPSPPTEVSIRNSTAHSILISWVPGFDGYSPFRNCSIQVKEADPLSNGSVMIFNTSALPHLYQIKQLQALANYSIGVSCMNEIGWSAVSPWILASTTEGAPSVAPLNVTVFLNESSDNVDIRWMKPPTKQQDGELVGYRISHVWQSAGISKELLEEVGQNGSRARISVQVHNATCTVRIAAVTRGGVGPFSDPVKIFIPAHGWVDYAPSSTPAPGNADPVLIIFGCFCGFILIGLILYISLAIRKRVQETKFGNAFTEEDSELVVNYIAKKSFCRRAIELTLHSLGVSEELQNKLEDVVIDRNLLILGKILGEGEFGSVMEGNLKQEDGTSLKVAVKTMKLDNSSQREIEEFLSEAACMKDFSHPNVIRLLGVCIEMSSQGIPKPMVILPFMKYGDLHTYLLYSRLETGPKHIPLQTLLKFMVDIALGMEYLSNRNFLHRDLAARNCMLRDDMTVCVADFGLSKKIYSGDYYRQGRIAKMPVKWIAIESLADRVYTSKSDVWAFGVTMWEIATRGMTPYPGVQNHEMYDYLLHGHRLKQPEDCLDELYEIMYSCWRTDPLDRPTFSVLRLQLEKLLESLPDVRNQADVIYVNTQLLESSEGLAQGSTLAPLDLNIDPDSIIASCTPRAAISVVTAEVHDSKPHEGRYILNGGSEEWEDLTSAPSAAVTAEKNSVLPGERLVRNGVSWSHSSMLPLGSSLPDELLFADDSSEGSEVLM
- Experiment Notes: phosphorylation enrichment, bacterial display (enrichment ratio); higher = better substrate or ligand; peptides without Tyr show the background;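 also: 11-residue human phosphosite peptides and single-mutation variants displayed on the E. coli surface, counted by deep sequencing, each peptide's frequency after selection divided by its frequency in the unselected input library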;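 also: frequency after pTyr selection over input frequency; kinase dosed for 20-30% of maximal phosphorylation in three min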
# phosphorylation enrichment values compiled below

{"Residue String": "RLAKTYETTLE [ALB_Y377]", "phosphorylation enrichment": 0.596}
{"Residue String": "NFRRGYHLQVL [CD200R1L_Y138_H135R]", "phosphorylation enrichment": 0.394}
{"Residue String": "SMAKYYASEIA [ACADSB_Y373]", "phosphorylation enrichment": 0.46}
{"Residue String": "NGTVTYAIIAG [CDH23_Y1672_V1675I]", "phosphorylation enrichment": 2.68}
{"Residue String": "IQKWEYVPLGP [FAH_Y244]", "phosphorylation enrichment": 0.597}
{"Residue String": "ANAFIYVVQLP [L1CAM_Y420_YF]", "phosphorylation enrichment": 0.909}
{"Residue String": "FFCRWYRNQKS [EREG_Y144_R147Q_YF]", "phosphorylation enrichment": 0.497}
{"Residue String": "HKANEYFPVVI [ADAMTS18_Y764_L769I_YF]", "phosphorylation enrichment": 0.663}
{"Residue String": "HQIQSYTCEID [DES_Y331]", "phosphorylation enrichment": 0.595}
{"Residue String": "CTTIHHNFMCN [TP53_Y234_Y234H_YF]", "phosphorylation enrichment": 0.377}
{"Residue String": "HDRREYSRFEK [ITGB7_Y758_Y753H]", "phosphorylation enrichment": 0.445}

====

- Target Or System: Hck (UniProt P08631)
- Sequence (P08631 whole entry, looked up): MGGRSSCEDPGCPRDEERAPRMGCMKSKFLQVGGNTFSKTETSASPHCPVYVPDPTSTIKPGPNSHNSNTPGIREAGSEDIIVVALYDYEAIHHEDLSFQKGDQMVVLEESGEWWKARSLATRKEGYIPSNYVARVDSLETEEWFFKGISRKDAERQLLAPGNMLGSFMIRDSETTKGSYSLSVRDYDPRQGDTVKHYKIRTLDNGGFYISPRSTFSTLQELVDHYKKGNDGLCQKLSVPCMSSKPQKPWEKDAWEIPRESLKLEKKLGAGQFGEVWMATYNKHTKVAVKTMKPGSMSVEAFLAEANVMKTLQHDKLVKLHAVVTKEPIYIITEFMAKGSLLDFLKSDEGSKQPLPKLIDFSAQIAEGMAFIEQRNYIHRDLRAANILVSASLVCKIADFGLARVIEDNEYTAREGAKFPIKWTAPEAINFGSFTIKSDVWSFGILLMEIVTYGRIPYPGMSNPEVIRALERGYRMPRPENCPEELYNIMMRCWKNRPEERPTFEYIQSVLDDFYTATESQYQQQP
- Experiment Notes: phosphorylation enrichment, bacterial display (enrichment ratio); higher = better substrate or ligand; peptides without Tyr show the background
We begin with a simple list: items and their reported phosphorylation enrichment.

{"Residue String": "VTQEPYELFCE [CBL_Y368_Q367P_YF]", "phosphorylation enrichment": 0.569}
{"Residue String": "SAVTGYRVNVI [FN1_Y937_D940N]", "phosphorylation enrichment": 0.399}
{"Residue String": "MPLDQYSPSFP [FGFR1_Y776]", "phosphorylation enrichment": 0.6}
{"Residue String": "DRQASYLDKVR [KRT16_Y131_L128Q]", "phosphorylation enrichment": 0.399}
{"Residue String": "RNFGTYTAGLS [RHBDD1_Y264_D262G_YF]", "phosphorylation enrichment": 0.657}
{"Residue String": "VFAPDYIAGVS [NOB1_Y366]", "phosphorylation enrichment": 0.651}
{"Residue String": "SKNYTYIWWLN [PSG4_Y271]", "phosphorylation enrichment": 0.4}
{"Residue String": "INSLKYAYNIS [EIF2B5_Y583]", "phosphorylation enrichment": 0.401}
{"Residue String": "QSSALYEDCYL [ASS1_Y83_R86C]", "phosphorylation enrichment": 1.84}
{"Residue String": "GANSEYIIAEK [ECHS1_Y35_F33S]", "phosphorylation enrichment": 0.587}
{"Residue String": "LGIDRYHAIVF [NPSR1_Y147_S143G_YF]", "phosphorylation enrichment": 0.942}
{"Residue String": "ASGKYYAMKIL [AKT3_Y174]", "phosphorylation enrichment": 0.434}
{"Residue String": "LTRDIYKNDFF [ROS1_Y2110_A2106T_YF]", "phosphorylation enrichment": 0.717}

Data origin: the supplement of paper PMC10065799
